Data provenance is patent EP2388012A1.

- system tested: Kissorphin-6 (human)
measured parameter: Kd (nM)
Express your answer in nM, writing the number without its unit.

binder: KCNTATCATQRLANFLVHSSNNFGAILSSTNVGSNTY (modifications not checked) [IAPP 1-37]
measurement units: nM
Kd: 11.6

Now for a further binder.
Incoming: Consider the binder KTNMKHMAGAAAAGAVVGGLG (modifications not checked) [PrP 106-126] and give its measured Kd.
Outgoing: 34.2
